System: HBV DNA replication in DES19 cells
Assay: Inhibition of intracellular HBV DNA replication in HepDES19 cells (PCR)
Assay type: cell-based
Conditions: Hepatitis B virus, HepDES19, read-out: IC50 for Compound II, DES19 cells; Compound I 160 nM
MEASURED METRIC: IC50 (µM)
Give bare numbers, in µM.

CCCCCCCCCCCCCCCCOCCCOP(=O)(O)CO[C@H](C)Cn1cnc2c(N)ncnc21 [Compound II] tested on HBV DNA replication in DES19 cells gave IC50: 0.0866

* * *

Tested on: HBV DNA replication in HepAD38 cells
Test: Inhibition of intracellular HBV DNA replication in HepAD38 cells (PCR)
Format: cell-based
Conditions: Hepatitis B virus, HePAD38, read-out: IC50 for Compound II, AD38 cells; Compound I 160 nM
MEASURED METRIC: IC50 (µM)
Answers are plain numbers, in µM.

Looking up CCCCCCCCCCCCCCCCOCCCOP(=O)(O)CO[C@H](C)Cn1cnc2c(N)ncnc21 [Compound II] , I found its IC50 recorded as 0.104
